system: E. coli C 165; assay: MIC, test tube series dilution test, E. coli C 165; type: cell-based; settings: 24 hours, 37°C
Would you mind telling me the reported MIC of each entry?

Sample records with MIC:
>>> value_observed("CC1(C)S[C@@H]2[C@H](NC(=O)[C@H](NC(=O)c3cc(NC(=O)C4CC4)ccc3Cl)c3ccccc3)C(=O)N2[C@H]1C(=O)O [Example 53]")
"128-256 U/ml"
>>> value_observed("CC1(C)S[C@@H]2[C@H](NC(=O)[C@H](NC(=O)c3cc(NC(=O)C4CCC4)ccc3Cl)c3ccccc3)C(=O)N2[C@H]1C(=O)O [Example 52]")
"128-256 U/ml"
>>> value_observed("CC1(C)S[C@@H]2[C@H](NC(=O)[C@H](NC(=O)c3ccc([N+](=O)[O-])cc3)c3ccccc3)C(=O)N2[C@H]1C(=O)O [Example 33]")
"~ 32 U/ml"

// below: MIC requested for another compound
*Q* Fill: MIC (E. coli C 165) for this compound CC1(C)S[C@@H]2[C@H](NC(=O)[C@H](NC(=O)c3ccc(NC(=O)C4CCC=CCC4)cc3)c3ccccc3)C(=O)N2[C@H]1C(=O)O [Example 14]
*A* ~ 8 U/ml

* * *

Would you mind telling me the reported MIC of each entry?
tested on: E. coli 183/58; assay: MIC, test tube series dilution test, E. coli 183/58; assay type: cell-based; settings: 24 hours, 37°C

Sample records with MIC:
>>> value_observed("CC1(C)S[C@@H]2[C@H](NC(=O)[C@H](NC(=O)c3cc(NC(=O)C4CC4)ccc3Cl)c3ccccc3)C(=O)N2[C@H]1C(=O)O [Example 53]")
"128-256 U/ml"
>>> value_observed("Cc1cc(C)cc(C(=O)Nc2ccc(C(=O)N[C@@H](C(=O)N[C@@H]3C(=O)N4[C@@H]3SC(C)(C)[C@@H]4C(=O)O)c3ccccc3)cc2)c1 [Example 21]")
"~ 1 U/ml"

// below: MIC requested for another compound
*Q* For the compound CC1(C)S[C@@H]2[C@H](NC(=O)[C@H](NC(=O)c3cc(NC(=O)C4CCC4)ccc3Cl)c3ccccc3)C(=O)N2[C@H]1C(=O)O [Example 52] , give its measured MIC value.
*A* 32-64 U/ml
